Would you mind telling me the reported [Intermediate A] or [Amprenavir] of each entry?
- TARGET UNDER TEST: bovine intestinal alkaline phosphatase (Bos taurus (Bovine), UniProt P19111)
- Sequence (P19111 20-506): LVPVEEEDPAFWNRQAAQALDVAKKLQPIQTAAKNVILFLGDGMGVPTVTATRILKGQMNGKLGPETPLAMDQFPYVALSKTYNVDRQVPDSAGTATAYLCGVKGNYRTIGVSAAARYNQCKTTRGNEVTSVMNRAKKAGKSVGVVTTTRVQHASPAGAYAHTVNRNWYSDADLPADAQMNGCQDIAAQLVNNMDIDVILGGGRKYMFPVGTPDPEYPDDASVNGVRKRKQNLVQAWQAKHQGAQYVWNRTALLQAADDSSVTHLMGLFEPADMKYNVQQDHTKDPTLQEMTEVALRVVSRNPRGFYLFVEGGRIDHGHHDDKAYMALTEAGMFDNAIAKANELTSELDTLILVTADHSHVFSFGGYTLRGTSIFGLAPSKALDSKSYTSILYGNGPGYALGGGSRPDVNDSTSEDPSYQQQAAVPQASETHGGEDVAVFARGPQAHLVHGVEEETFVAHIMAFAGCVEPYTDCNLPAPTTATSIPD
- PROCEDURE DETAILS: BiALP: conversion by bovine intestinal alkaline phosphatase
- Assay type: in vitro ADME
- CONDITION DESCRIPTION: parent formed; 2 μM substrate, 100 ng/mL iALP, Tris pH 7.8, 37° C., 60 minutes
Put your answer as a value accompanied by its unit after it.

COC(=O)N[C@H](C(=O)N[C@@H](Cc1ccc(C#Cc2cnc(N3CC4CCC(C3)N4C3COC3)nc2)cc1)[C@H](CN(Cc1c(F)cc(-c2ccn(C(F)F)n2)cc1F)NC(=O)[C@@H](NC(=O)OC)C(C)(C)C(F)(F)F)OC(=O)CC(C)(C)c1c(CC(=O)Nc2ccccn2)cc(C)cc1OP(=O)(O)O)C(C)(C)C(F)(F)F [Example 13] yielded [Intermediate A] or [Amprenavir] of 1.8 nM

COC(=O)N[C@H](C(=O)N[C@@H](Cc1ccc(C#Cc2cnc(N3CC4CCC(C3)N4C3COC3)nc2)cc1)[C@H](CN(Cc1c(F)cc(-c2ccn(C(F)F)n2)cc1F)NC(=O)[C@@H](NC(=O)OC)C(C)(C)C(F)(F)F)OC(=O)CC(C)(C)c1c(CC(=O)N[C@@H](CCC(=O)O)C(=O)O)cccc1OP(=O)(O)O)C(C)(C)C(F)(F)F [Example 6] yielded [Intermediate A] or [Amprenavir] of 306.6 nM

COC(=O)N[C@H](C(=O)N[C@@H](Cc1ccc(C#Cc2cnc(N3CC4CCC(C3)N4C3COC3)nc2)cc1)[C@H](CN(Cc1c(F)cc(-c2ccn(C(F)F)n2)cc1F)NC(=O)[C@@H](NC(=O)OC)C(C)(C)C(F)(F)F)OC(=O)CC(C)(C)c1c(CC(=O)N(CCCC(=O)O)CC(=O)O)cc(C)cc1OP(=O)(O)O)C(C)(C)C(F)(F)F [Example 8] yielded [Intermediate A] or [Amprenavir] of 157.3 nM

COC(=O)N[C@H](C(=O)N[C@@H](Cc1ccc(C#Cc2cnc(N3CC4CCC(C3)N4C3COC3)nc2)cc1)[C@H](CN(Cc1c(F)cc(-c2ccn(C(F)F)n2)cc1F)NC(=O)[C@@H](NC(=O)OC)C(C)(C)C(F)(F)F)OC(=O)CC(C)(C)c1c(CC(=O)Nc2cccc(C(=O)O)c2)cc(C)cc1OP(=O)(O)O)C(C)(C)C(F)(F)F [Example 14] yielded [Intermediate A] or [Amprenavir] of 50.3 nM

COC(=O)N[C@H](C(=O)N[C@@H](Cc1ccc(C#Cc2cnc(N3CC4CCC(C3)N4C3COC3)nc2)cc1)[C@H](CN(Cc1c(F)cc(-c2ccn(C(F)F)n2)cc1F)NC(=O)[C@@H](NC(=O)OC)C(C)(C)C(F)(F)F)OC(=O)CC(C)(C)c1c(CC(=O)N2CC(C(=O)O)CC(C(=O)O)C2)cc(C)cc1OP(=O)(O)O)C(C)(C)C(F)(F)F (some centres unmarked) [Example 67] yielded [Intermediate A] or [Amprenavir] of 175.4 nM

----------
- Tested on: HIV-1 IIIB strain
- PROCEDURE DETAILS: MT-4 HIV Wild Type Virus Infection Assay (IIIB Virus)
- Assay type: cell-based
- CONDITION DESCRIPTION: Human immunodeficiency virus 1, IIIB, MT4, 120 h, MT-4 cells acutely infected with HIV-1 IIIB, 5 day incubation, Cell-titer glo
Would you mind telling me the reported pEC50 of each entry?
Interpret pEC50 as the negative base-10 log of the concentration measured in mol/L.

`COC(=O)N[C@H](C(=O)N[C@@H](Cc1ccc(C#Cc2cnc(N3CC4CCC(C3)N4C3COC3)nc2)cc1)[C@H](CN(Cc1c(F)cc(-c2ccn(C(F)F)n2)cc1F)NC(=O)[C@@H](NC(=O)OC)C(C)(C)C(F)(F)F)OC(=O)CC(C)(C)c1c(CC(=O)NCC(=O)O)cccc1OP(=O)(O)O)C(C)(C)C(F)(F)F` yielded pEC50 of 7.63

`COC(=O)N[C@H](C(=O)N[C@@H](Cc1ccc(C#Cc2cnc(N3CC4CCC(C3)N4C3COC3)nc2)cc1)[C@H](CN(Cc1c(F)cc(-c2ccn(C(F)F)n2)cc1F)NC(=O)[C@@H](NC(=O)OC)C(C)(C)C(F)(F)F)OC(=O)CC(C)(C)c1c(CC(=O)N[C@@H](CCC(=O)O)C(=O)O)cc(C)cc1OP(=O)(O)O)C(C)(C)C(F)(F)F` yielded pEC50 of 6.79

`COC(=O)N[C@H](C(=O)N[C@@H](Cc1ccc(C#Cc2cnc(N3CC4CCC(C3)N4C3COC3)nc2)cc1)[C@H](CN(Cc1c(F)cc(-c2ccn(C(F)F)n2)cc1F)NC(=O)[C@@H](NC(=O)OC)C(C)(C)C(F)(F)F)OC(=O)OCOC(=O)CC(C)(C)c1c(CC(=O)N[C@@H](CCC(=O)O)C(=O)O)cc(C)cc1OP(=O)(O)O)C(C)(C)C(F)(F)F` yielded pEC50 of 8.18

`COC(=O)N[C@H](C(=O)N[C@@H](Cc1ccc(C#Cc2cnc(N3CC4CCC(C3)N4C3COC3)nc2)cc1)[C@H](CN(Cc1c(F)cc(-c2ccn(C(F)F)n2)cc1F)NC(=O)[C@@H](NC(=O)OC)C(C)(C)C(F)(F)F)OC(=O)CC(C)(C)c1c(CC(=O)N2CC(C)(C)C[C@H]2C(=O)O)cc(C)cc1OP(=O)(O)O)C(C)(C)C(F)(F)F` yielded pEC50 of 5.72

`COC(=O)N[C@H](C(=O)N[C@@H](Cc1ccc(C#Cc2cnc(N3CC4CCC(C3)N4C3COC3)nc2)cc1)[C@H](CN(Cc1c(F)cc(-c2ccn(C(F)F)n2)cc1F)NC(=O)[C@@H](NC(=O)OC)C(C)(C)C(F)(F)F)OC(=O)CC(C)(C)c1c(CC(=O)N(C)CC(=O)O)cc(C)cc1OP(=O)(O)O)C(C)(C)C(F)(F)F` yielded pEC50 of 7.00

`COC(=O)N[C@H](C(=O)N[C@@H](Cc1ccc(C#Cc2cnc(N3CC4CCC(C3)N4C3COC3)nc2)cc1)[C@H](CN(Cc1c(F)cc(-c2ccn(C(F)F)n2)cc1F)NC(=O)[C@@H](NC(=O)OC)C(C)(C)C(F)(F)F)OC(=O)CC(C)(C)c1c(CC(=O)N2CC[C@@H](O)[C@H]2C(=O)O)cc(C)cc1OP(=O)(O)O)C(C)(C)C(F)(F)F` yielded pEC50 of 6.54

----------
- TARGET UNDER TEST: UniProt:P19111
- PROCEDURE DETAILS: BiALP: conversion by bovine intestinal alkaline phosphatase
- Format: in vitro ADME
- CONDITION DESCRIPTION: 2 μM substrate, 100 ng/mL iALP, Tris pH 7.8, 37° C., 60 minutes
Would you mind telling me the reported [Compound] of each entry?
Write the answer as a number in nM, unit excluded.

`COC(=O)N[C@H](C(=O)N[C@@H](Cc1ccc(C#Cc2cnc(N3CC4CCC(C3)N4C3COC3)nc2)cc1)[C@H](CN(Cc1c(F)cc(-c2ccn(C(F)F)n2)cc1F)NC(=O)[C@@H](NC(=O)OC)C(C)(C)C(F)(F)F)OC(=O)CC(C)(C)c1c(CC(=O)N2C[C@H](O)C[C@H]2C(=O)O)cc(C)cc1OP(=O)(O)O)C(C)(C)C(F)(F)F` yielded [Compound] of 1573.2

`COC(=O)N[C@H](C(=O)N[C@@H](Cc1ccc(C#Cc2cnc(N3CC4CCC(C3)N4C3COC3)nc2)cc1)[C@H](CN(Cc1c(F)cc(-c2ccn(C(F)F)n2)cc1F)NC(=O)[C@@H](NC(=O)OC)C(C)(C)C(F)(F)F)OC(=O)CC(C)(C)c1c(CC(=O)N2C[C@H](OC)C[C@H]2C(=O)O)cc(C)cc1OP(=O)(O)O)C(C)(C)C(F)(F)F` yielded [Compound] of 1520.4

`COC(=O)N[C@H](C(=O)N[C@@H](Cc1ccc(C#Cc2cnc(N3CC4CCC(C3)N4C3COC3)nc2)cc1)[C@H](CN(Cc1c(F)cc(-c2ccn(C(F)F)n2)cc1F)NC(=O)[C@@H](NC(=O)OC)C(C)(C)C(F)(F)F)OC(=O)CC(C)(C)c1c(CC(=O)N(C)CCC(=O)O)cc(C)cc1OP(=O)(O)O)C(C)(C)C(F)(F)F` yielded [Compound] of 1912

COC(=O)N[C@H](C(=O)N[C@@H](Cc1ccc(C#Cc2cnc(N3CC4CCC(C3)N4C3COC3)nc2)cc1)[C@H](CN(Cc1c(F)cc(-c2ccn(C(F)F)n2)cc1F)NC(=O)[C@@H](NC(=O)OC)C(C)(C)C(F)(F)F)OC(=O)CC(C)(C)c1c(CC(=O)NC(CCCC(=O)O)CC(=O)O)cc(C)cc1OP(=O)(O)O)C(C)(C)C(F)(F)F (stereo partly drawn) yielded [Compound] of 1518.9

`COC(=O)N[C@H](C(=O)N[C@@H](Cc1ccc(C#Cc2cnc(N3CC4CCC(C3)N4C3COC3)nc2)cc1)[C@H](CN(Cc1c(F)cc(-c2ccn(C(F)F)n2)cc1F)NC(=O)[C@@H](NC(=O)OC)C(C)(C)C(F)(F)F)OC(=O)CC(C)(C)c1c(CC(=O)N2C[C@@H](O)C[C@H]2C(=O)O)cc(C)cc1OP(=O)(O)O)C(C)(C)C(F)(F)F` yielded [Compound] of 1576.7

`COC(=O)N[C@H](C(=O)N[C@@H](Cc1ccc(C#Cc2cnc(N3CC4CCC(C3)N4C3COC3)nc2)cc1)[C@H](CN(Cc1c(F)cc(-c2ccn(C(F)F)n2)cc1F)NC(=O)[C@@H](NC(=O)OC)C(C)(C)C(F)(F)F)OC(=O)CC(C)(C)c1c(CC(=O)NC23CC(C(=O)O)(C2)C3)cc(C)cc1OP(=O)(O)O)C(C)(C)C(F)(F)F` yielded [Compound] of 1920.9

`COC(=O)N[C@H](C(=O)N[C@@H](Cc1ccc(C#Cc2cnc(N3CC4CCC(C3)N4C3COC3)nc2)cc1)[C@H](CN(Cc1c(F)cc(-c2ccn(C(F)F)n2)cc1F)NC(=O)[C@@H](NC(=O)OC)C(C)(C)C(F)(F)F)OC(=O)CC(C)(C)c1c(CC(=O)NCc2cccc(C(=O)O)c2)cc(C)cc1OP(=O)(O)O)C(C)(C)C(F)(F)F` yielded [Compound] of 2028.9

`COC(=O)N[C@H](C(=O)N[C@@H](Cc1ccc(C#Cc2cnc(N3CC4CCC(C3)N4C3COC3)nc2)cc1)[C@H](CN(Cc1c(F)cc(-c2ccn(C(F)F)n2)cc1F)NC(=O)[C@@H](NC(=O)OC)C(C)(C)C(F)(F)F)OC(=O)CC(C)(C)c1c(CC(=O)N2C[C@@H](C(=O)O)C[C@H]2C(=O)O)cc(C)cc1OP(=O)(O)O)C(C)(C)C(F)(F)F` yielded [Compound] of 1868.8

`COC(=O)N[C@H](C(=O)N[C@@H](Cc1ccc(C#Cc2cnc(N3CC4CCC(C3)N4C3COC3)nc2)cc1)[C@H](CN(Cc1c(F)cc(-c2ccn(C(F)F)n2)cc1F)NC(=O)[C@@H](NC(=O)OC)C(C)(C)C(F)(F)F)OC(=O)CC(C)(C)c1c(CC(=O)Nc2cccc(S(=O)(=O)O)c2)cc(C)cc1OP(=O)(O)O)C(C)(C)C(F)(F)F` yielded [Compound] of 1626.1

`COC(=O)N[C@H](C(=O)N[C@@H](Cc1ccc(C#Cc2cnc(N3CC4CCC(C3)N4C3COC3)nc2)cc1)[C@H](CN(Cc1c(F)cc(-c2ccn(C(F)F)n2)cc1F)NC(=O)[C@@H](NC(=O)OC)C(C)(C)C(F)(F)F)OC(=O)CC(C)(C)c1c(CC(=O)NCC(=O)O)cccc1OP(=O)(O)O)C(C)(C)C(F)(F)F` yielded [Compound] of 1590.8

`COC(=O)N[C@H](C(=O)N[C@@H](Cc1ccc(C#Cc2cnc(N3CC4CCC(C3)N4C3COC3)nc2)cc1)[C@H](CN(Cc1c(F)cc(-c2ccn(C(F)F)n2)cc1F)NC(=O)[C@@H](NC(=O)OC)C(C)(C)C(F)(F)F)OC(=O)CC(C)(C)c1c(CC(=O)N[C@@H](CCS(=O)(=O)O)C(=O)O)cccc1OP(=O)(O)O)C(C)(C)C(F)(F)F` yielded [Compound] of 1458.8

`COC(=O)N[C@H](C(=O)N[C@@H](Cc1ccc(C#Cc2cnc(N3CC4CCC(C3)N4C3COC3)nc2)cc1)[C@H](CN(Cc1c(F)cc(-c2ccn(C(F)F)n2)cc1F)NC(=O)[C@@H](NC(=O)OC)C(C)(C)C(F)(F)F)OC(=O)CC(C)(C)c1c(CC(=O)NCc2ccc(C(F)F)cc2)cc(C)cc1OP(=O)(O)O)C(C)(C)C(F)(F)F` yielded [Compound] of 2228.1
